Entries and their Octet response after 200 sec association values follow.
Target: T1, LA peptide
T1 construct: The peptide was coated on the Octet sensor; also called peptide with N-terminal leucine and penultimate alanine
Assay: BLI (Octet), peptide on sensor, purified protein in solution
# number only, unit nm dropped from output

Sample records with Octet response after 200 sec association:
>>> recorded_value("PS796 (designed binder, also called N41D, V72M) MPTAASATESAIEDTPAPARPEVDGRTKPKRQPRYHVVLWDDDDHTYQYVVVMLQSLFGHPPERGYRLAKEMDTQGRVIVLTTTREHAELKRDQIHAFGYDRLLARSKGSMKASIEAEE")
11.9
>>> recorded_value("PS809 (designed binder, Variant of PS557; also called V72M) MPTAASATESAIEDTPAPARPEVDGRTKPKRQPRYHVVLWNDDDHTYQYVVVMLQSLFGHPPERGYRLAKEMDTQGRVIVLTTTREHAELKRDQIHAFGYDRLLARSKGSMKASIEAEE")
10.8
>>> recorded_value("PS829 (designed binder, Variant of PS557) MPTAASATESAIEDTPAPARPEVDGRTKPKRQPRYHVVLWDDDDHTYQYVVVMLQSLFGHPRERGYRLAKEMDTLGRVIVLTTTREHAELKRDQIHAFGYDRLLARSKGSMKASIEAEE")
8.5

Below: the item to evaluate.
Look at this binder and give its reported Octet response after 200 sec association. PS798 (designed binder, Variant of PS557; also called V72M, Q75L) MPTAASATESAIEDTPAPARPEVDGRTKPKRQPRYHVVLWNDDDHTYQYVVVMLQSLFGHPPERGYRLAKEMDTLGRVIVLTTTREHAELKRDQIHAFGYDRLLARSKGSMKASIEAEE 13.9

# credit: patent US20240272170A1
